Form field: pEC50 (one value per entry).
target: EGFR InsH transformed Ba/F3 cells (Homo sapiens, UniProt P00533, DUP773-773); assay: Proliferation inhibition assay, EGFR InsH transformed Ba/F3 cells; details: MTS assay, 72 hours
Sequence (P00533 with tags, fused parts or gaps DUP773-773): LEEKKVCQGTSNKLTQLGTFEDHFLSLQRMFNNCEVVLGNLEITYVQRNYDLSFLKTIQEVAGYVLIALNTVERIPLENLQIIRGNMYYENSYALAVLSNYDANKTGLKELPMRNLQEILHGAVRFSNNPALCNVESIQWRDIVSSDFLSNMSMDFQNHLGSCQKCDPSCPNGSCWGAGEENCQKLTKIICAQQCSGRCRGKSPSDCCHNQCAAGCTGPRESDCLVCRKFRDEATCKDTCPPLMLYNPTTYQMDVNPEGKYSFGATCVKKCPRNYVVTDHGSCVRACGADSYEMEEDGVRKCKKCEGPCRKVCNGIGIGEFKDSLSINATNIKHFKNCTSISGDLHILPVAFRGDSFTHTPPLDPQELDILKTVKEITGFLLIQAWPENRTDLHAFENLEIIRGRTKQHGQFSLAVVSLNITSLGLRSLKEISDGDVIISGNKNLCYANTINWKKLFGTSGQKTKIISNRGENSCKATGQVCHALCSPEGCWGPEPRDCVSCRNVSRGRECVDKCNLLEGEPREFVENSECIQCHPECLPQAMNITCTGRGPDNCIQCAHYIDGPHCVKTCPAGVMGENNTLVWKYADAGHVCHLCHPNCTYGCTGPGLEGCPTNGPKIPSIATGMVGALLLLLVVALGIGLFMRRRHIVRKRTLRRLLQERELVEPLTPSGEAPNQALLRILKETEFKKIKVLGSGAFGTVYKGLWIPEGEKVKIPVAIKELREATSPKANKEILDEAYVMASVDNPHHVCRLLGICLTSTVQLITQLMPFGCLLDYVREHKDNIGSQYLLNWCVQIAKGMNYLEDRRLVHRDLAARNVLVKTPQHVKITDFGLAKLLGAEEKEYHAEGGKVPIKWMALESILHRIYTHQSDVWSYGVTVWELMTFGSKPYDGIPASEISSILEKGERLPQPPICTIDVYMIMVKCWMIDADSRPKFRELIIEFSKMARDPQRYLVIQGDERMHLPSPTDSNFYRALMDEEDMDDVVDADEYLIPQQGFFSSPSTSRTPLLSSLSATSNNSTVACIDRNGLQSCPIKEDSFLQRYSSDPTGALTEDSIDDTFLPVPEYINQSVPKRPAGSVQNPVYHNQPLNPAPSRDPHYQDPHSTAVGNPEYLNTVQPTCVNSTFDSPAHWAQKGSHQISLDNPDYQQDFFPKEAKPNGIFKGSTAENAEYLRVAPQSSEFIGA
pEC50: −log10 of the molar value.

Return reported pEC50; argument: C=CC(=O)Nc1cccc(-n2c(=O)c(Oc3cc(F)c(F)cc3F)cc3cnc(Nc4cnn(C)c4)nc32)c1
6.00 to 6.22

pEC50 for C=CC(=O)Nc1cccc(-n2c(=O)c(Oc3ccc(F)c(Cl)c3)cc3cnc(Nc4cnn(C)c4)nc32)c1 ?
6.22 to 6.70

Endpoint output: pEC50 of C=CC(=O)Nc1cccc(-n2c(=O)c(Oc3ccc(Cl)cc3F)cc3cnc(Nc4cnn(C)c4)nc32)c1 . Value?
6.22 to 6.70

Name the reported pEC50 value associated with the molecule C=CC(=O)N1CCC[C@@H](n2c(=O)c(Oc3ccc(F)cc3F)cc3cnc(Nc4cnn(C5CCN(C)CC5)c4)nc32)C1
6.00 to 6.22

Any idea what pEC50 was measured for C=CC(=O)Nc1cc(Nc2ncc3cc(Oc4ccc(F)cc4F)c(=O)[nH]c3n2)c(OC)cc1N(C)CCN(C)C ?
6.22 to 6.70

What pEC50 value was documented for this molecule, CC#CC(=O)Nc1cc(Nc2ncc3cc(Oc4ccc(F)cc4F)c(=O)n(C)c3n2)c(OC)cc1N(C)CCN(C)C ?
6.00 to 6.22

Please look up its pEC50: C=CC(=O)Nc1cc(Nc2ncc3cc(Oc4ccc(F)cc4)c(=O)n(C)c3n2)ccc1N(C)CCN(C)C
< 6.00

----------
target: HER2 InsWLV transformed Ba/F3 cells (Homo sapiens, UniProt P04626, INS773WL/M774V); construct: expressed in transfected cells; host or cells: Ba/F3; experiment: Proliferation inhibition assay, HER2 InsWLV transformed Ba/F3 cells; type: cell-based; details: MTS assay, 72 hours, Table 9 key
Sequence (P04626 with tags, fused parts or gaps INS773WL/M774V): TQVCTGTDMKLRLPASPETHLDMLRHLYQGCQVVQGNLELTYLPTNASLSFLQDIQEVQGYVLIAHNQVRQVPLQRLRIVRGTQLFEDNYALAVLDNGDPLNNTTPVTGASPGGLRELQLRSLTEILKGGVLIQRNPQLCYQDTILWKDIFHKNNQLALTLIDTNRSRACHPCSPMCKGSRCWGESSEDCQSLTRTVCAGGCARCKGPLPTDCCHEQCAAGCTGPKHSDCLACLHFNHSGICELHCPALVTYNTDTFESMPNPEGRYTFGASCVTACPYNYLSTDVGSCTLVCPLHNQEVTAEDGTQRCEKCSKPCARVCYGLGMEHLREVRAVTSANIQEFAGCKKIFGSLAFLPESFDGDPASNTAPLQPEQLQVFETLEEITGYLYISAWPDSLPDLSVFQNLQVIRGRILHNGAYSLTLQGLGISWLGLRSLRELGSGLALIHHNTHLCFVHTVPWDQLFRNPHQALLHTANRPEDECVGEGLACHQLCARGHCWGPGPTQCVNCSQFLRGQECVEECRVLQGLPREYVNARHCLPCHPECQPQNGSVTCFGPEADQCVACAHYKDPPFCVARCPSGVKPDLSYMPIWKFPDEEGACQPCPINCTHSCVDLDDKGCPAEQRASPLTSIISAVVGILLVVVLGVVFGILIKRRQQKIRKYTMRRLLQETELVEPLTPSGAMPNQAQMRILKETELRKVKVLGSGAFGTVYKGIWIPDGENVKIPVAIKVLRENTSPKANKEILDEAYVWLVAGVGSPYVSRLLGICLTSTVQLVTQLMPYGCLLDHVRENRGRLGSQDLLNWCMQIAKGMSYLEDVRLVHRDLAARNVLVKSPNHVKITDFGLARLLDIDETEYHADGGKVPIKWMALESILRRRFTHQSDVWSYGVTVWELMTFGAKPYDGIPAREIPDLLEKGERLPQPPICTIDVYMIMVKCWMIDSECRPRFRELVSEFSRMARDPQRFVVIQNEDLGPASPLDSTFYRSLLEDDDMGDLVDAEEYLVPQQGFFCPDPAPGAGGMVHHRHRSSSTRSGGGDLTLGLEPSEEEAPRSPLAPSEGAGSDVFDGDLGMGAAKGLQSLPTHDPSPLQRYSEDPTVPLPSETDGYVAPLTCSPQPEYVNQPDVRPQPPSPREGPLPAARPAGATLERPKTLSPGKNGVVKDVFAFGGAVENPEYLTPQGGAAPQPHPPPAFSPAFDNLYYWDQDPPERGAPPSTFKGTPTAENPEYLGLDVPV
pEC50: −log10 of the molar value.
Listed here: items and their measured pEC50.

Check out these entries, answers already filled in.
>>> print(df.to_string())
                                   molecule     obs_value
0  C=CC(=O)N1CCCC(n2c(=O)c(Oc3ccc(F)cc3F)cc3cnc(Nc4cnn(C)c4)nc32)CC1 (stereo not shown)  6.60 to 7.00
1  C=CC(=O)Nc1cccc(-n2c(=O)c(Oc3ccc(F)cc3F)cc3cnc(Nc4cn(C)nc4OCC)nc32)c1        > 7.00
2  C=CC(=O)Nc1cccc(-n2c(=O)c(Oc3ccc(F)cc3F)cc3cnc(Nc4ccc(N5CCC(N6CCN(C)CC6)CC5)cc4)nc32)c1  6.60 to 7.00
3  C=CC(=O)Nc1cc(Nc2ncc3cc(Oc4ccc(F)cc4F)c(=O)n(C)c3n2)c(OC)cc1N(C)CCN(C)C        > 7.00

State its pEC50 on HER2 InsWLV transformed Ba/F3 cells (Homo sapiens, UniProt P04626, INS773WL/M774V): C=CC(=O)Nc1cccc(-n2c(=O)c(Oc3ccc(F)cc3F)cc3cnc(Nc4cnn(C5CCN(C)CC5)c4)nc32)c1
6.60 to 7.00

Requested read-out pEC50, target or system HER2 InsWLV transformed Ba/F3 cells (Homo sapiens, UniProt P04626, INS773WL/M774V), entry C=CC(=O)N1CCC[C@@H](n2c(=O)c(Oc3ccc(F)cc3F)cc3cnc(Nc4cnn(C)c4)nc32)C1
6.60 to 7.00

API: value(readout=pEC50, system=HER2 InsWLV transformed Ba/F3 cells (Homo sapiens, UniProt P04626, INS773WL/M774V)) for record C=CC(=O)Nc1cccc(-n2c(=O)c(Oc3ccc(F)cc3F)cc3cnc(Nc4cnn(C(F)F)c4)nc32)c1
6.60 to 7.00

----------
target: mutant EGFR L858R transformed Ba/F3 cells (Homo sapiens, UniProt P00533, L858R); test: Proliferation inhibition assay, EGFR L858R transformed Ba/F3 cells
quantity-measured: EC50

I am curious: what EC50 value has been reported for C=CC(=O)Nc1cccc(-n2c(=O)c(Oc3ccc(F)cc3F)cc3cnc(Nc4cnn(C)c4)nc32)c1 ?
< 0.1 µM

----------
target: wild-type EGFR transformed Ba/F3 cells (Homo sapiens, UniProt P00533); test: Proliferation inhibition assay, wild-type EGFR transformed Ba/F3 cells; conditions: MTS assay, 72 hours
Sequence (P00533 25-1210): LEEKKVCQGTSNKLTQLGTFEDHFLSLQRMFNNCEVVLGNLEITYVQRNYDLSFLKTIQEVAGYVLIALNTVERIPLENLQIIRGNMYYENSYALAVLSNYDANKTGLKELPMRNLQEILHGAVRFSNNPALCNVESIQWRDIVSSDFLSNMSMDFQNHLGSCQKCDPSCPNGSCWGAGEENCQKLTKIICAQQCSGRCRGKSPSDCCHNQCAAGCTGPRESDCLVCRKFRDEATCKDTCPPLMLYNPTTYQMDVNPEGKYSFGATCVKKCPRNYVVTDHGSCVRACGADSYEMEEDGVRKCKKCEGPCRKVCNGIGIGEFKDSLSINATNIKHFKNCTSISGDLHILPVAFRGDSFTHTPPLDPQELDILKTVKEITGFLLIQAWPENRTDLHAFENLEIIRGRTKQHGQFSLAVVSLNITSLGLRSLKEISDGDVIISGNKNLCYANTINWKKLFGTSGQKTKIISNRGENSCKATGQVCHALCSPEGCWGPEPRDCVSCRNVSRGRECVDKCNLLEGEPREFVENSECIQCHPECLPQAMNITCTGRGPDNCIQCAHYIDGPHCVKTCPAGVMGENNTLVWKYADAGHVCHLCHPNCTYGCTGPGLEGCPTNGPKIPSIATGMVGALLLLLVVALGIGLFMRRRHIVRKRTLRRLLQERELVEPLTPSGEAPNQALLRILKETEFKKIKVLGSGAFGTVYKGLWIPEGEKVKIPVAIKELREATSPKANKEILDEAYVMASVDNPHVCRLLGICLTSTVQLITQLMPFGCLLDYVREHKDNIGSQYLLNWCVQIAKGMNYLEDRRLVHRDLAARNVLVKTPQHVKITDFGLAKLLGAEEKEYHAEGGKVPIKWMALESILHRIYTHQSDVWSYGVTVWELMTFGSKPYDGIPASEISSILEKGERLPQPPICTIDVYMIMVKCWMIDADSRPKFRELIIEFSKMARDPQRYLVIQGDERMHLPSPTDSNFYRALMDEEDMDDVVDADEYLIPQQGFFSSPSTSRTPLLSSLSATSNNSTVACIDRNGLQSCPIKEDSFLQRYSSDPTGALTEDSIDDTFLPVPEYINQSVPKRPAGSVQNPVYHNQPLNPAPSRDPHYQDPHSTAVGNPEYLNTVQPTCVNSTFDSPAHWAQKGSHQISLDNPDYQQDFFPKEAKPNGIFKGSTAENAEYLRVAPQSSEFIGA
pEC50: −log10 of the molar value.
quantity-measured: pEC50

Solved entries:
>>> print(df.to_string())
                                   molecule                             target_system  quantity_measured     obs_value
0  C=CC(=O)N1C[C@H](Cn2c(=O)c(Oc3ccc(F)cc3F)cc3cnc(N)nc32)[C@@H](OC)C1  wild-type EGFR transformed Ba/F3 cells (Homo sapiens, UniProt P00533)              pEC50  6.22 to 6.70
1  C=CC(=O)Nc1cc(Nc2ncc3cc(Oc4ccc(F)cc4F)c(=O)n(C)c3n2)c(OC)cc1N(C)CCN(C)C  wild-type EGFR transformed Ba/F3 cells (Homo sapiens, UniProt P00533)              pEC50        > 6.70
2  C=CC(=O)Nc1cc(Nc2ncc3cc(Nc4ccc(F)cc4F)c(=O)n(C)c3n2)c(OC)cc1OCCN(C)C  wild-type EGFR transformed Ba/F3 cells (Homo sapiens, UniProt P00533)              pEC50        > 6.70
3  C=CC(=O)N1CCCC(n2c(=O)c(Oc3ccc(F)cc3F)cc3cnc(Nc4cnn(C)c4)nc32)CC1 (centres unmarked)  wild-type EGFR transformed Ba/F3 cells (Homo sapiens, UniProt P00533)              pEC50        > 6.70
4  C=CC(=O)N1CCC[C@@H](n2c(=O)c(Oc3ccc(F)cc3F)cc3cnc(Nc4cnn(C5CCN(C)CC5)c4)nc32)C1  wild-type EGFR transformed Ba/F3 cells (Homo sapiens, UniProt P00533)              pEC50        > 6.70
5  C=CC(=O)Nc1cc(Nc2ncc3cc(Oc4c(F)cc(F)cc4F)c(=O)n(C)c3n2)c(OC)cc1N(C)CCN(C)C  wild-type EGFR transformed Ba/F3 cells (Homo sapiens, UniProt P00533)              pEC50        > 6.70

# get_value(readout= pEC50, system= wild-type EGFR transformed Ba/F3 cells (Homo sapiens, UniProt P00533)) for CC#CC(=O)Nc1cc(Nc2ncc3cc(Oc4ccc(F)cc4F)c(=O)n(C)c3n2)c(OC)cc1N(C)CCN(C)C
> 6.70

I'm curious: which pEC50 was measured for C=CC(=O)Nc1cccc(-n2c(=O)c(Oc3ccc(Cl)cc3F)cc3cnc(Nc4cnn(C)c4)nc32)c1 tested on wild-type EGFR transformed Ba/F3 cells (Homo sapiens, UniProt P00533)?
> 6.70

Reported pEC50 for wild-type EGFR transformed Ba/F3 cells (Homo sapiens, UniProt P00533), given C=CC(=O)Nc1cc(Nc2ncc3cc(Oc4ccc(F)cc4F)c(=O)n(C)c3n2)ncc1N(C)CCN(C)C ?
6.22 to 6.70

----------
target: EGFR InsHH (Y764_V765insHH) transformed Ba/F3 cells (Homo sapiens, UniProt P00533, INS764HH); assay: Proliferation inhibition assay, EGFR InsHH transformed Ba/F3 cells; conditions: MTS assay, 72 hours
Sequence (P00533 with tags, fused parts or gaps INS764HH): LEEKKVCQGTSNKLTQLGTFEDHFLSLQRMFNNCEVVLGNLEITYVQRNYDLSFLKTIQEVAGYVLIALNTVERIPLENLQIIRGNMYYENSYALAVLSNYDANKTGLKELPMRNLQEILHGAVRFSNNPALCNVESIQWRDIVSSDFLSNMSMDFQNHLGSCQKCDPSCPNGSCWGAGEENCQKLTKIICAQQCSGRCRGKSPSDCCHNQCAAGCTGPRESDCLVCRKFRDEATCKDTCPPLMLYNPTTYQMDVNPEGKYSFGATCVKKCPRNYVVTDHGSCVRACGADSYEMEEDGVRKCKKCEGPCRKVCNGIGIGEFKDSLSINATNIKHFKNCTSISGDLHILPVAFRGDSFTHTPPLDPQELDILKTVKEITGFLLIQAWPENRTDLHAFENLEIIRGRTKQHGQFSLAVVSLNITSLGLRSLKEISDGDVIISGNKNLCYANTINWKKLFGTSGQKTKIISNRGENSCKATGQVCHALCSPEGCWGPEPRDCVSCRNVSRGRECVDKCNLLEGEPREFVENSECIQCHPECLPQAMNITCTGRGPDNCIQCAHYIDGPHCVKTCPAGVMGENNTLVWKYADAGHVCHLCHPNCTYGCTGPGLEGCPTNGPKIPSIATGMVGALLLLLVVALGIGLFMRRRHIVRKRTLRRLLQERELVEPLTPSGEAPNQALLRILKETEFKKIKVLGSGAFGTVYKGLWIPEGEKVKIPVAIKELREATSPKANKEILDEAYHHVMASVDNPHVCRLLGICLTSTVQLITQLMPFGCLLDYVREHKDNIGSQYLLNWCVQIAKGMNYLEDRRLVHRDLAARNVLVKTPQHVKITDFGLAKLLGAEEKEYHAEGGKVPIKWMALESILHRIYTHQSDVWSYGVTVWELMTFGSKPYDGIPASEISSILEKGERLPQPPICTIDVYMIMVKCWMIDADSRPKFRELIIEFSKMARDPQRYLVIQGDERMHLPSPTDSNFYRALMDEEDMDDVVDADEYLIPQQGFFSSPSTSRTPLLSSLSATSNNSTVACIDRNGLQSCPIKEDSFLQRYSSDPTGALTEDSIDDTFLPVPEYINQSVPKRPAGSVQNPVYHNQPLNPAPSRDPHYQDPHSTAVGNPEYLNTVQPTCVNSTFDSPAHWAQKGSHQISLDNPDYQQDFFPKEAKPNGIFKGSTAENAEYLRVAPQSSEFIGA
pEC50: −log10 of the molar value.
quantity-measured: pEC50

In [3]: df
Out[3]:
                                   compound  quantity_measured     obs_value
0  C=CC(=O)Nc1cccc(-n2c(=O)c(Oc3ccc(F)cc3F)cc3cnc(Nc4cnn(C5CCN(C)CC5)c4)nc32)c1              pEC50  6.22 to 6.70
1  C=CC(=O)Nc1cccc(-n2c(=O)c(Oc3ccc(F)cc3)cc3cnc(Nc4cnn(C)c4)nc32)c1              pEC50        > 6.70
2  C=CC(=O)N1CCC[C@@H](n2c(=O)c(Oc3ccc(F)cc3F)cc3cnc(Nc4cnn(C)c4)nc32)C1              pEC50  6.22 to 6.70
3  C=CC(=O)N1CCC(Cn2c(=O)c(Oc3ccc(F)cc3F)cc3cnc(Nc4cnn(C)c4)nc32)C1 (stereo not shown)              pEC50  6.00 to 6.22
4  C=CC(=O)Nc1cc(Nc2ncc3cc(Oc4ccc(F)cc4F)c(=O)n(C)c3n2)c(OC)cc1N(C)CCN(C)C              pEC50        > 6.70
5  C=CC(=O)Nc1cccc(-n2c(=O)c(Oc3ccc(F)cc3F)cc3cnc(Nc4ccc(N5CCN(C)CC5)cc4OC)nc32)c1              pEC50        > 6.70

Form field: reported pEC50 of CN(C)C/C=C/C(=O)Nc1cccc(-n2c(=O)c(Oc3ccc(F)cc3F)cc3cnc(Nc4cnn(C)c4)nc32)c1
6.22 to 6.70
